Procedure details: clinical
Stated conditions: human, in vivo, po

Smiles data | half-life (h)
CCOc1ccc(-c2cc(C)cn2-c2ccc(S(N)(=O)=O)cc2)cc1 | 11.8

###

Procedure details: clinical
Stated conditions: human, in vivo, po

Smiles data | Tmax / h
CCOc1ccc(-c2cc(C)cn2-c2ccc(S(N)(=O)=O)cc2)cc1 | 2
